- Tested on: Fusarium graminearum
- assay_summary: Fungicidal activity against Fusarium graminearum at 50 ug/ml by growth inhibition method
- Assay type: functional
- Parameters: scale not given: the % may be the effect or the level left
observed_property: Activity (%)

In [3]: df
Out[3]:
                                   compound  recorded_measurement
0  Cc1ccc(N(C(=O)c2snnc2C)C(C(=O)NC2CCCCC2)c2ccccc2C)cc1Cl (stereo not given)                    23
1  Cc1ccc(N(C(=O)c2snnc2C)C(C(=O)NC2CCCCC2)c2ccc([N+](=O)[O-])cc2)cc1F (stereo not given)                    34
2  Cc1ccc(N(C(=O)c2snnc2C)C(C(=O)NC2CCCCC2)c2cccc(Cl)c2)cc1F (stereo not given)                    27
3  Cc1ccc(N(C(=O)c2snnc2C)C(C(=O)NC2CCCCC2)c2ccc(C(F)(F)F)cc2)cc1Cl (stereo not given)                    19
4  Cc1cccc(C(C(=O)NC2CCCCC2)N(C(=O)c2snnc2C)c2ccc(C)c(F)c2)c1 (stereo not given)                    34
